Attribution: patent US8445491B2

System: Wnt/β-catenin pathway
Assay: luciferase-based reporter assay (SuperTopFlash) measuring Wnt/β-catenin-dependent transcriptional response, L-Wnt-STF cells
Assay type: cell-based
Conditions: Mus musculus; Table 1; luciferase reporter of Wnt/β-catenin-dependent transcriptional response
pEC50: −log10 of the molar value.
measuredQuantity: pEC50

{"columns": ["smilesInput", "reportedMeasurement"],
 "data": [
  ["O=C(Nc1cccc(Br)c1)c1ccc(N2C(=O)[C@@H]3[C@@H]4C=CC(C4)[C@@H]3C2=O)cc1", 5.05]
]}

[a] O=C(Nc1ccc(F)cc1)c1ccc(N2C(=O)[C@@H]3[C@@H]4C=CC(C4)[C@@H]3C2=O)cc1
[b] O=C(NCc1ccccc1)c1ccc(N2C(=O)[C@@H]3[C@@H]4C=CC(C4)[C@@H]3C2=O)cc1
input: Which one would you say has the larger pEC50 value: a , or b ? Your answer should be the label attached to the chosen record.
output: a
(a: 5.40, b: 4.70)
